- protocol-text: ATG_Sox_CIS: Attagene CIS-FACTORIAL HepG2 Assay for human SRY-box transcription factor (SOX) (AID 2282960)
- run-conditions: HepG2 Attagene cis-factorial SOX reporter, mRNA; actives raise or lower the signal
Active and inactive are the calls of the source. Rule for the calls: active = hit-call score of the fitted dose curve at least 0.9, where 1 is the maximum; inactive = score below 0.9.
Outcomes: class 1 = active, class 0 = inactive

[
  {
    "compound": "CC1(C)CN=C(NN=C(/C=C/c2ccc(C(F)(F)F)cc2)/C=C/c2ccc(C(F)(F)F)cc2)NC1",
    "label-value": "class 1"
  },
  {
    "compound": "Clc1ccc(Oc2ccccc2)cc1",
    "label-value": "class 0"
  },
  {
    "compound": "CCC(C)(C)c1ccc(O)cc1",
    "label-value": "class 0"
  },
  {
    "compound": "O=C(O)CF",
    "label-value": "class 0"
  },
  {
    "compound": "Cc1ccc(O)cc1C",
    "label-value": "class 0"
  },
  {
    "compound": "CCCCC(CC)COC(=O)c1c(Br)c(Br)c(Br)c(Br)c1C(=O)OCC(CC)CCCC (configuration not stated)",
    "label-value": "class 0"
  },
  {
    "compound": "O=C(CBr)OCc1ccccc1",
    "label-value": "class 0"
  }
]

----------
- test-system: Bile acid receptor (Homo sapiens)
- protocol-text: ATG_FXR_TRANS: Attagene TRANS-FACTORIAL HepG2 Assay for Farnesoid X Receptor (FXR) (AID 2282979);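 note: hits raise reporter mRNA above DMSO so AC50 marks FXR activation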
- run-conditions: HepG2 Attagene TRANS FXR-GAL4 reporter transcription
Records with an inconclusive call do not appear. Activity calls are given as the source filed them. How the source made its calls: active means hit-call score of the fitted dose curve at least 0.9, where 1 is the maximum; inconclusive means response in the unintended direction; inactive means score below 0.9.
Outcomes: active, inactive

[
  {
    "compound": "CCOP(=O)(O)C(N)=O",
    "label-value": "inactive"
  },
  {
    "compound": "OCC(F)(F)OC(F)(F)C(F)(F)OC(F)(F)C(F)(F)OC(F)(F)F",
    "label-value": "inactive"
  },
  {
    "compound": "N#Cc1cc([N+](=O)[O-])ccc1N",
    "label-value": "inactive"
  },
  {
    "compound": "O=P(Oc1ccccc1)(Oc1ccccc1)Oc1ccccc1",
    "label-value": "inactive"
  },
  {
    "compound": "CCCCC(CC)COP(=O)(Oc1ccccc1)Oc1ccccc1 (configuration not stated)",
    "label-value": "inactive"
  },
  {
    "compound": "CCOC(=O)c1ccccc1N",
    "label-value": "inactive"
  },
  {
    "compound": "FC(F)(F)C(F)(C(F)(F)F)C(F)(F)C(F)(F)CC1CO1 (configuration not stated)",
    "label-value": "inactive"
  },
  {
    "compound": "COC(=O)C(F)(F)C(F)(F)OC(F)(C(F)(F)F)C(F)(F)OC(F)=C(F)F (configuration not stated)",
    "label-value": "inactive"
  },
  {
    "compound": "CCOP(=S)(OCC)SCn1nnc2ccccc2c1=O",
    "label-value": "active"
  },
  {
    "compound": "Clc1ccc(Oc2ccccc2)cc1",
    "label-value": "inactive"
  },
  {
    "compound": "O=S1(=O)OCC2C(CO1)C1(Cl)C(Cl)=C(Cl)C2(Cl)C1(Cl)Cl (configuration not stated)",
    "label-value": "inactive"
  },
  {
    "compound": "CCNc1nc(Cl)nc(NC(C)(C)C)n1",
    "label-value": "inactive"
  }
]
